FYI, the data here is from patent US5310884A.

Molecular target: LTD4 receptor (guinea-pig lung membranes) (Cavia porcellus, UniProt Q2NNR5)
Sequence (Q2NNR5 whole entry): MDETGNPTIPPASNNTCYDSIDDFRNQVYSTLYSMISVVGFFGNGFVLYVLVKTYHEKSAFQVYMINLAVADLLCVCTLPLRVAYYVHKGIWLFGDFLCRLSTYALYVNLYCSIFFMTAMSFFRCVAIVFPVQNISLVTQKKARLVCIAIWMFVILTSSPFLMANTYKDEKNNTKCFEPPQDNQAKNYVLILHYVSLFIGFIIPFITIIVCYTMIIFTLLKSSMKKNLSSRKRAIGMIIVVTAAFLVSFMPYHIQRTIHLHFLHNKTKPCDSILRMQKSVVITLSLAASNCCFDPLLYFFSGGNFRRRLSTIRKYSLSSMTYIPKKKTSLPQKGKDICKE
Assay: biochemical
Conditions: read-out: IC50 for inhibition of [3H]LTD4 specific binding; monovalent cation
pIC50: −log10 of the molar value.
Measured parameter: pIC50

The compound listed as [Cl-].[Na+] [NaCl] has a reported pIC50 of ~1.52

----------
System: 45 kDa guinea-pig lung membrane protein
Assay: [125I]Azido-LTD4 photoaffinity labelling of the 45 kDa guinea-pig lung membrane protein (SDS-PAGE, autoradiography, laser densitometry)
Type: binding
Conditions: nucleotide analogue; read-out: IC50 for inhibition of photolabelling of the 45 kDa protein
Measured parameter: pIC50
Give bare numbers, as −log10 of the molar value.

The molecule listed as Nc1nc2c(ncn2[C@@H]2O[C@H](COP(=O)(O)OP(=O)(O)OP(O)(O)=S)[C@@H](O)[C@H]2O)c(=O)[nH]1 [GTPγS] has a reported pIC50 of 6.00
